- measurement target: Caspase-1 (Homo sapiens, UniProt P29466)
- Sequence (P29466 120-297 limits assumed): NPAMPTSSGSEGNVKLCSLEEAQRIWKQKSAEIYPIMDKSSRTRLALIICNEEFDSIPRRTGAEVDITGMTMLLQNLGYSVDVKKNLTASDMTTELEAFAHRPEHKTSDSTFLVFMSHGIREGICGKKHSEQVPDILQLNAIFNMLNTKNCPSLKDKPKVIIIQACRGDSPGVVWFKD
- Sequence (P29466 317-404 limits assumed): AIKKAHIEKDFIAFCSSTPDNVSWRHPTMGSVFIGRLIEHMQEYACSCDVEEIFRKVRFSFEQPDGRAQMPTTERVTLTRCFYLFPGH
- assay info: Inhibition of human recombinant caspase 1 assessed as accumulation of fluorogenic product by fluorometric assay
value kind: IC50 (µM)
// return numeric value only (unit: µM, not printed)

line notation | measurement target | IC50 / µM
N#CC(C#N)=C1C(=O)N(Cc2ccc(Cl)c(Cl)c2)c2ccc(S(=O)(=O)N3CCOCC3)cc21 | Caspase-1 (Homo sapiens, UniProt P29466) | 5.35
COc1ccc(CN2C(=O)C(=C(C#N)C#N)c3cc(S(=O)(=O)N4CCOCC4)ccc32)cc1 | Caspase-1 (Homo sapiens, UniProt P29466) | 6.82
N#CC(C#N)=C1C(=O)N(Cc2ccccc2)c2ccc(S(=O)(=O)N3CCSCC3)cc21 | Caspase-1 (Homo sapiens, UniProt P29466) | 4.58

IC50 in this record for `N#CC(C#N)=C1C(=O)N(Cc2ccccc2)c2ccc(S(=O)(=O)N3CCCC3)cc21` : 4.7

IC50 in this record for `COc1ccc(CN2C(=O)C(=C(C#N)C#N)c3cc(S(=O)(=O)N4CCC4)ccc32)cc1` : 4.18

IC50 in this record for `N#CC(C#N)=C1C(=O)N(Cc2ccc(Cl)c(Cl)c2)c2ccc(S(=O)(=O)N3CCSCC3)cc21` : 5.35
